Measured values drawn from patent US20230295152A1 for this set.

assay: Solubility Determination Assay in PBS pH 1.6 and pH 7.4; assay type: physicochemical; settings: PBS buffer, aqueous buffer, kinetic from dmso stock, PBS pH 7.4, 25° C., read-out: Aq. Solubility at pH = 7.4
Each record here notes measured solubility at 2 h.

Some solved entries appear below for comparison.
compound	outcome_measure	measurement
C[C@@H](CO)n1cnc2c(-c3cccnc3)nc(-c3cnc(C(F)(F)F)nc3)cc2c1=O [Compound 86]	solubility at 2 h	≥ 1 µM
Cn1cc(-c2nc(-c3ccc(C(F)(F)F)nc3)cc3c(=O)n(CC(C)(C)O)cnc23)cn1 [Compound 60]	solubility at 2 h	≥ 1 µM
O=c1c2cc(-c3ccc(C(F)(F)F)cn3)nc(-c3cccnc3)c2ncn1[C@@H]1COC[C@H]1O [Compound 140]	solubility at 2 h	≥ 1 µM
Cn1cc(-c2nc(-c3ccc(C(F)(F)F)nc3)cc3c(=O)n([C@H]4COC[C@H]4O)cnc23)cn1 [Compound 88]	solubility at 2 h	0.1 to 1 µM

Now for the compound whose solubility at 2 h we want.
Incoming: Using the record for C[C@@H](CO)n1cnc2c(-c3cccnc3)nc(-c3cnc(C(F)(F)F)s3)cc2c1=O [Compound 85] , report its solubility at 2 h.
Outgoing: ≥ 1 µM

----------
assay: Solubility Determination Assay in PBS pH 1.6 and pH 7.4; assay type: physicochemical; conditions: PBS buffer, aqueous buffer, kinetic from dmso stock, PBS pH 1.6, 25° C., read-out: Aq. Solubility at pH = 1.6
Each record here notes measured solubility at 2 h.

Some solved entries appear below for comparison.
compound	solubility at 2 h
C[C@@H](O)Cn1cnc2c(-c3cccnc3)nc(-c3ccc(C(F)(F)F)cn3)cc2c1=O	≥ 1 µM
Cn1cc(-c2nc(-c3ccc(C(F)(F)F)nc3)cc3c(=O)n([C@H]4COC[C@H]4O)cnc23)cn1	≥ 1 µM
C[C@@H](CO)n1cnc2c(-n3ccnc3)nc(-c3ccc(C(F)(F)F)cn3)cc2c1=O	≥ 1 µM
C[C@@H](CO)n1cnc2c(-c3cccnc3)nc(-c3cnc(C(F)(F)F)s3)cc2c1=O	≥ 1 µM
C[C@@H](CO)n1cnc2c(-c3cnn(C)c3)nc(-c3ccc(OC(F)(F)F)cc3)cc2c1=O	0.1 to 1 µM
C[C@@H](CO)n1cnc2c(-c3cccc(F)c3)nc(-c3ccc(Cl)cc3)cc2c1=O	0.1 to 1 µM
Cn1cc(-c2nc(-c3ccc(C4CC4)nc3)cc3c(=O)n(CC(C)(C)O)cnc23)cn1	≥ 1 µM
Cn1cc(-c2nc(-c3ccc(C(F)(F)F)nc3)cc3c(=O)n(C[C@H](O)C(F)(F)F)cnc23)cn1	0.1 to 1 µM
O=c1c2cc(-c3ccc(Cl)cc3)nc(-c3cccnc3)c2ncn1C[C@H](O)C(F)(F)F (single isomer, unassigned) [185 enantiomer 2]	≥ 1 µM
Cn1cc(-c2nc(-c3ccc(C(F)(F)F)nc3)cc3c(=O)n(CC(C)(C)O)cnc23)cn1	≥ 1 µM

Incoming: Using the record for C[C@@H](CO)n1cnc2c(-c3cccnc3)nc(-c3ccc(OC(F)(F)F)cc3)cc2c1=O , report its solubility at 2 h.
Outgoing: ≥ 1 µM

Incoming: Check C[C@@H](CO)n1cnc2c(-c3cnsc3)nc(-c3ccc(C(F)(F)F)cn3)cc2c1=O too.
Outgoing: 0.1 to 1 µM

Incoming: Check CC(C)(O)Cn1cnc2c(-c3cccnc3)nc(-c3ccc(Cl)cc3)cc2c1=O too.
Outgoing: ≥ 1 µM

----------
Each record here notes measured Papp A→B at 2 h, 1 μM.
assay: Caco-2 Permeability Assay; format: in vitro ADME; settings: human, Caco-2, pH 7.4, apical to basolateral; read-out: Caco2 Papp (AB)

Incoming: Using the record for C[C@@H](n1cnc2c(-c3cccnc3)nc(-c3ccc(Cl)cc3)cc2c1=O)C(C)(C)O [Compound 33] , report its Papp A→B at 2 h, 1 μM.
Outgoing: 2 to 10 ×10⁻⁶ cm/s

Incoming: Check C[C@@H](CO)n1cnc2c(-c3cncc(F)c3)nc(-c3ccc(OC(F)(F)F)cc3)cc2c1=O [Compound 1] too.
Outgoing: 2 to 10 ×10⁻⁶ cm/s

Incoming: Check CC(C)(O)Cn1cnc2c(-c3cccnc3)nc(-c3ccc(C(F)(F)F)cc3)cc2c1=O [Compound 16] too.
Outgoing: 2 to 10 ×10⁻⁶ cm/s

Incoming: Check C[C@@H](CO)n1cnc2c(-c3cnn(C)c3)nc(-c3ccc(Cl)cc3)cc2c1=O [Compound 27] too.
Outgoing: 2 to 10 ×10⁻⁶ cm/s

Incoming: Check C[C@@H](CO)n1cnc2c(-c3cccc(F)c3)nc(-c3ccc(Cl)cc3)cc2c1=O [Compound 7] too.
Outgoing: < 2 ×10⁻⁶ cm/s
